FYI, the data here is from patent US12565504B2.

# assay system: Recombinant full length human OGA enzyme (Homo sapiens (Human), UniProt O60502)
# Sequence (O60502 whole entry): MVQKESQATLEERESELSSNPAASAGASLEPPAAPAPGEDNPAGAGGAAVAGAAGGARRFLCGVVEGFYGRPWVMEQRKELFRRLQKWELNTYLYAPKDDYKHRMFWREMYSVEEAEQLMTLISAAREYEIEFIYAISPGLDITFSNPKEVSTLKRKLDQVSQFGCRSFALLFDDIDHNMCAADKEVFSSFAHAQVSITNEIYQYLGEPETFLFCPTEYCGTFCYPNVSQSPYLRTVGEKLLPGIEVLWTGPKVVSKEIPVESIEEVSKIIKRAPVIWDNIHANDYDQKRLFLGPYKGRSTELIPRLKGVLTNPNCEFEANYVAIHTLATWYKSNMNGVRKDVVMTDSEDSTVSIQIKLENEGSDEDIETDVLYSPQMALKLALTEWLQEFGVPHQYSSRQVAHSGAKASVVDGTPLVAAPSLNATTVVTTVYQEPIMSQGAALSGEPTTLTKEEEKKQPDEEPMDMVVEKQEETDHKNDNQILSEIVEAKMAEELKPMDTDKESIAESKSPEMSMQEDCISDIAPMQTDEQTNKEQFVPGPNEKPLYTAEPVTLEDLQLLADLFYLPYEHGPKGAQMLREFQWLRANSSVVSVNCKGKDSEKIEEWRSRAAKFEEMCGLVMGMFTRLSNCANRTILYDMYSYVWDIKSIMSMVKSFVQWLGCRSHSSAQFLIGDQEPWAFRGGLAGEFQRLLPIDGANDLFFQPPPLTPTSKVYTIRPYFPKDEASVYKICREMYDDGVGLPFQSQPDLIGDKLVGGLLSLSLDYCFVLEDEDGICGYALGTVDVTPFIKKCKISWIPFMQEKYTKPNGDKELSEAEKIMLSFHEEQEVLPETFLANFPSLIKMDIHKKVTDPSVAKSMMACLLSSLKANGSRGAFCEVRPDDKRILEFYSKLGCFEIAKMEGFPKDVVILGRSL
# test details: OGA Enzyme Inhibition Biochemical Assay
# measurement conditions: 1 nM OGA, 100 μM 4-MUGlcNAc, 90 minutes, pH 6.4
pIC50: −log10 of the molar value.
Label Yes when pIC50 is at or above 8; anything below gets No.

q: Could you tell me if the measured pIC50 of CC(=O)Nc1nc(F)c(CN2CCC3(Cc4ccncc4O3)C2)s1 (centres unmarked) [Example 90] reaches 8 or more?
a: No

====

Here the recorded efflux ratio at 2 hr is given for each entry.
# System: P-gp (MDR1)
# test details: MDR1-MDCK Efflux Ratio Assay
# Assay type: in vitro ADME
# measurement conditions: dog, MDR1-MDCK cells, pH 7.4, read-out: MDR1-MDCK Efflux Ratio (B-A/A-B)
// no unit string in output, number only

molecule	efflux ratio at 2 hr
CC(=O)Nc1ncc(CN2CCCC3(CCCO3)C2)s1 (centres unmarked)	2.6
COCCN(C)c1cc2c(cn1)O[C@]1(C2)C[C@H](C)N(Cc2sc(NC(C)=O)nc2F)C1	22
CC(=O)Nc1nc(F)c(CN2C[C@@]3(Cc4cc(C(F)F)ncc4O3)C[C@@H]2C)s1	5.6
CC(=O)Nc1nc(F)c(CN2C[C@@]3(Cc4cc(=O)[nH]cc4O3)C[C@@H]2C)s1	2.5
CC(=O)Nc1ncc(CN2C[C@@]3(Cc4cc(C(F)(F)F)ncc4O3)C[C@@H]2C)s1	11
CC(=O)Nc1ncc(CN2CC3(C[C@@H]2C)OCc2ccccc23)s1 (some centres unmarked)	3.5

q: // query efflux ratio at 2 hr value for entry CC(=O)Nc1nc(F)c(CN2C[C@@]3(Cc4cc(Cl)ncc4O3)C[C@@H]2C)s1
a: 5.2

q: Next entry: CNc1cc2c(cn1)O[C@]1(C2)C[C@H](C)N(Cc2sc(NC(C)=O)nc2F)C1
a: 17.7

q: Next entry: CC(=O)Nc1ncc(CN2CCCC3(C2)OCc2cnccc23)s1 (centres unmarked)
a: 10.7

q: Next entry: CC(=O)Nc1nc(F)c(CN2CCCC3(C2)OCc2ccncc23)s1 (centres unmarked)
a: 21.6

q: Next entry: CC(=O)Nc1nc(F)c(CN2C[C@@]3(Cc4ncccc4O3)C[C@@H]2C)s1 (single isomer, unassigned)
a: 14

q: Next entry: CC(=O)Nc1ncc(CN2C[C@@]3(Cc4cc(Cl)ncc4O3)C[C@@H]2C)s1
a: 8.4

q: Next entry: CC(=O)Nc1nc(F)c(CN2CC3(C[C@@H]2C)OCc2cccnc23)s1 (some centres unmarked)
a: 26

q: Next entry: CC(=O)Nc1ncc(CN2C[C@@]3(Cc4cc(N5C[C@@H](C)O[C@@H](C)C5)ncc4O3)C[C@@H]2C)s1
a: 29.5

q: Next entry: COc1cc2c(cn1)[C@@]1(C[C@H](C)N(Cc3cnc(NC(C)=O)s3)C1)OC2 (single isomer, unassigned)
a: 8.9

q: Next entry: CC(=O)Nc1nc(F)c(CN2CCCC3(COc4ccccc43)C2)s1 (centres unmarked)
a: 0.8

q: Next entry: CC(=O)Nc1nc(F)c(CN2CCCC3(C2)OCc2c3cc[nH]c2=O)s1 (centres unmarked)
a: 32.6

====

# assay system: Recombinant full length human OGA enzyme (Homo sapiens (Human), UniProt O60502)
# test details: OGA Enzyme Inhibition Biochemical Assay
# measurement conditions: 1 nM OGA, 100 μM 4-MUGlcNAc, 90 minutes, pH 6.4
value kind: pIC50
Please express pIC50 as -log10 of the molar concentration.

Look over these answered cases.
compound	assay system	pIC50
CC(=O)Nc1nc(F)c(CN2CCCC3(C2)OCc2c3cc[nH]c2=O)s1 (stereo not drawn)	Recombinant full length human OGA enzyme (Homo sapiens (Human), UniProt O60502)	7.84
CC(=O)Nc1ncc(CN2CC3(CCC2C)OCc2ccccc23)s1 (stereo not drawn)	Recombinant full length human OGA enzyme (Homo sapiens (Human), UniProt O60502)	5.77
CC(=O)Nc1ncc(CN2CCCC3(CCCO3)C2)s1 (stereo not drawn)	Recombinant full length human OGA enzyme (Homo sapiens (Human), UniProt O60502)	6.74

q: // query pIC50 value for entry CC(=O)Nc1ncc(CN2CCCC3(C2)OCc2ccncc23)s1 (stereo not drawn)
a: 7.89

q: Next entry: CC(=O)Nc1nc(F)c(CN2CCCC3(C2)OCc2cccnc23)s1 (stereo not drawn)
a: 7.54

q: Next entry: CC(=O)Nc1nc(F)c(CN2CCCC3(COc4ccccc43)C2)s1 (stereo not drawn)
a: 5.82

q: Next entry: CC(=O)Nc1nc(F)c(CN2CCC3(C2)OCc2cnccc23)s1 (stereo not drawn)
a: 6.92

q: Next entry: CC(=O)Nc1nc(F)c(CN2C[C@@]3(Cc4cc(=O)[nH]cc4O3)C[C@@H]2C)s1
a: 9.00
